- Test system: Colletotrichum camelliae
- measurement_notes: Antifungal activity against Colletotrichum camelliae assessed as inhibition of mycelial growth at 1000 ug/mL measured after 5 days of cultivation
- Type: functional
- condition_details: 120 h, read-out: GI
Decision: inhibition of growth at 1000 µg/mL compared against 60%; not below it gives 1 (yes), below it gives 0 (no).

Challenge: Can COC(=O)c1ccccc1O [METHYL SALICYLATE] be said to have inhibition of growth at 1000 µg/mL at or above 60%?
Response given: 0 (no)

Challenge: Can CC(C)=CCC/C(C)=C/CO [GERANIOL] be said to have inhibition of growth at 1000 µg/mL at or above 60%?
Response given: 1 (yes)

Challenge: Can C=C[C@]1(C)CC[C@@H](C(C)(C)O)O1 [(E)-LINALOOL OXIDE] be said to have inhibition of growth at 1000 µg/mL at or above 60%?
Response given: 0 (no)

Challenge: Can OCCc1ccccc1 [PHENYLETHYL ALCOHOL] be said to have inhibition of growth at 1000 µg/mL at or above 60%?
Response given: 1 (yes)

Challenge: Can C=CC(C)(O)CCC=C(C)C (stereo not drawn) [LINALOOL] be said to have inhibition of growth at 1000 µg/mL at or above 60%?
Response given: 0 (no)

Challenge: Can C=C[C@]1(C)CC[C@H](C(C)(C)O)O1 [CIS-FURANOID] be said to have inhibition of growth at 1000 µg/mL at or above 60%?
Response given: 0 (no)

Origin of the recorded values: ChEMBL document CHEMBL3045126
